# Tested on: Saccharomyces cerevisiae
# TEST_DETAILS: protein stability index of tFT-peptide fusion (C-terminal peptide) (PSI (0-1 scale)); higher = more stable (slower turnover)
# EXPERIMENTAL_CONTEXT: genetic background: das1 deletion; temperature: 30 C
Values of protein stability index greater than or equal to 0.6 map to fulfilled; values below map to not fulfilled.

1) VYLVLRCGSVLV : not fulfilled

Record SLFDQDCGGTVW ; criterion: protein stability index no lower than 0.6. Met? fulfilled

Record VIAFFSVLKRYV ; criterion: protein stability index no lower than 0.6. Met? not fulfilled

Record FLLSFFGLVFFW ; criterion: protein stability index no lower than 0.6. Met? not fulfilled

Record VPVWHTVKLYCF ; criterion: protein stability index no lower than 0.6. Met? not fulfilled

Record FHLVIYWCVRGP ; criterion: protein stability index no lower than 0.6. Met? not fulfilled

----------
# System: Saccharomyces cerevisiae
# TEST_DETAILS: protein stability index of tFT-peptide fusion (C-terminal peptide) (PSI (0-1 scale)); higher = more stable (slower turnover)
# EXPERIMENTAL_CONTEXT: genetic background: cdc34-1; temperature: 37 C
Note: every record was labeled by where its protein stability index sits among low range (below 0.4), mid range (0.4 to below 0.6), high range (0.6 or more)

Form: Item = WFSVIMLCYILP ; Class = ? low range

----------
# Tested on: Saccharomyces cerevisiae
# TEST_DETAILS: protein stability index of tFT-peptide fusion (C-terminal peptide) (PSI (0-1 scale)); higher = more stable (slower turnover)
# EXPERIMENTAL_CONTEXT: genetic background: wild type; temperature: 30 C
ENDPOINT_LABEL: protein stability index
Answers are plain numbers.

Examples with answers:
1. VASYVCIGVVWV : 0.351
2. GGRALVGGRRHG : 0.756
3. TSGTPSRTHTLR : 0.612
4. SRVERRRTSREG : 0.672

Quick batch: protein stability index for everything below.
1. KEMRCRKKKEGK
2. GVCGGVGGWGVA
3. RVLVRLFGRGKA
4. AVYRPFPFRSGI
5. PPRTMTLSAPLT
6. HGSRGGIINEEG

[0.683, 0.698, 0.688, 0.699, 0.708, 0.642]

Quick batch: protein stability index for everything below.
1. PSFLPPAPLGIS
2. GFSGSPWSNPFV
3. MLLSKRHFESDV
4. RVLDNYLTDYCL
5. EKIVHEGAHGWR

0.741
0.866
0.692
0.675
0.681

Quick batch: protein stability index for everything below.
1. RSLVALSRRLRG
2. VVVGVGGGVDMG

0.637
0.685

----------
I'd appreciate it if you could supply protein stability index values for the items below.
# System: Saccharomyces cerevisiae
# TEST_DETAILS: protein stability index of tFT-peptide fusion (C-terminal peptide) (PSI (0-1 scale)); higher = more stable (slower turnover)
# EXPERIMENTAL_CONTEXT: genetic background: wild type; temperature: 30 C
Give bare numbers.

1) SLEKELISRGYR [CDC73 C-terminal 12 aa] : 0.685
2) DFQNCFPRQRIL [DFP2 C-terminal 12 aa] : 0.285
3) LVIDQITQLRQQ [COG1 C-terminal 12 aa] : 0.616
4) ITTKRSLCSSKD [PEX25 C-terminal 12 aa] : 0.695
5) YDLVEKCVWRGI [ORC3 C-terminal 12 aa] : 0.716
6) VYLSVIILMGNG [EMA17 C-terminal 12 aa] : 0.247

Quick batch: protein stability index for everything below.
1. LEEVEVNDFIQE [SWM2 C-terminal 12 aa]
2. KNDKIHLFMYCT [YBR103C-A C-terminal 12 aa]
3. FDDSSSVSSKSD [GPC1 C-terminal 12 aa]
4. VREYNKYCEAIL [VPS13 C-terminal 12 aa]

1: 0.682; 2: 0.536; 3: 0.695; 4: 0.667

----------
# Tested on: Saccharomyces cerevisiae
# TEST_DETAILS: protein stability index of tFT-peptide fusion (C-terminal peptide) (PSI (0-1 scale)); higher = more stable (slower turnover)
# EXPERIMENTAL_CONTEXT: genetic background: wild type; temperature: 30 C
ENDPOINT_LABEL: protein stability index
Give bare numbers.

1) TLWNDNTSYPFL [PDR3 C-terminal 12 aa] : 0.757
2) DYLYAKDDLLKW [GPP1 C-terminal 12 aa] : 0.709
3) SIYDGTEEKIVY [DAL4 C-terminal 12 aa] : 0.705
4) PVFTASQLRFAW [ESA1 C-terminal 12 aa] : 0.715
5) MYGLGIRDCCIM [RCY1 C-terminal 12 aa] : 0.776

Quick batch: protein stability index for everything below.
1. VIKCFTSSDMTS [NAG1 C-terminal 12 aa]
2. HFNSSSPQKVEF [LSM4 C-terminal 12 aa]
3. YKKMKEMRKKRR [FCF2 C-terminal 12 aa]
4. SEEKRRLAPADI [YOL019W-A C-terminal 12 aa]
5. KKAPYFLPAPHT [FMO1 C-terminal 12 aa]

1. 0.683
2. 0.738
3. 0.71
4. 0.691
5. 0.715

Quick batch: protein stability index for everything below.
1. QSADAAGVVKKH [GCN20 C-terminal 12 aa]
2. PLTLISLLFAFI [YPS1 C-terminal 12 aa]

0.726
0.612

----------
I'd appreciate it if you could supply protein stability index values for the items below.
# System: Saccharomyces cerevisiae
# TEST_DETAILS: protein stability index of tFT-peptide fusion (C-terminal peptide) (PSI (0-1 scale)); higher = more stable (slower turnover)
# EXPERIMENTAL_CONTEXT: genetic background: wild type; temperature: 30 C
Numbers only.

1) SLFLVLSLAQLL : 0.579
2) TRYKSMRAGVAG : 0.674
3) PGSLPPPPPPPP : 0.716
4) TVTPAARTWHGR : 0.678

Quick batch: protein stability index for everything below.
1. GGGGATSGRLSR
2. SMWNFPRLAKTR
3. GNFDRVSMTKFR
4. TCTIQSEDFHEI
5. PRPLTPPAPPHP
6. DLERRKGTGVWR

1. 0.705
2. 0.685
3. 0.73
4. 0.707
5. 0.748
6. 0.637

----------
# Tested on: Saccharomyces cerevisiae
# TEST_DETAILS: protein stability index of tFT-peptide fusion in deletion strain of DOA10 (PSI (0-1 scale)); higher = more stable (slower turnover)
ENDPOINT_LABEL: protein stability index
One number for each entry.

1. AITLMMCPLLLR : 0.612
2. RSTRLDAIYFRI : 0.678
3. AITLPMCLLLLR : 0.629
4. GLYMCSVMCWFR : 0.383
5. CLVELPILLFFR : 0.625

Quick batch: protein stability index for everything below.
1. AVTLPMCPLLLR
2. RSLRFLLPLYFR
3. RSLRVLLPLYFRG
4. GLYMCWVGCWFR
5. MLYMCSVGCWFR
6. APTLPMCPLLLR
7. RSLRVLAPLYFR
8. AITLVMCPLLLR

0.648
0.632
0.694
0.387
0.604
0.664
0.687
0.679

Quick batch: protein stability index for everything below.
1. GLYMCRVGCWFR
2. GLRMCSVGCWFR
3. GLYMCSVGCKFR
4. AITLPMCSLLLR
5. RSLRVLLPLYTR
6. RVTRLDAIYMRI

[0.638, 0.676, 0.654, 0.656, 0.648, 0.71]

----------
I'd appreciate it if you could supply protein stability index values for the items below.
# Tested on: Saccharomyces cerevisiae
# TEST_DETAILS: protein stability index of tFT-peptide fusion (C-terminal peptide) (PSI (0-1 scale)); higher = more stable (slower turnover)
# EXPERIMENTAL_CONTEXT: genetic background: das1 deletion; temperature: 37 C
One number for each entry.

Examples with answers:
1) GCRLRHRLVRIV : 0.69
2) VFCLPISAPPLH : 0.727
3) RGWNGFWVVVVW : 0.416
4) SWMSQFSILLTA : 0.23
5) IFFSLFFFFLCN : 0.526
6) CVFFPFLGVCYV : 0.473
7) SHWSMQATLQLV : 0.687
8) RLARRGGGWGPG : 0.706
9) DFHLPWPVALVW : 0.277
10) PPPPTPRPLLPP : 0.73

Quick batch: protein stability index for everything below.
1. IILGVRQIEVNS
2. FSCRRISFFLLV
3. RWRLWVGWGVVG
4. CRRLCGWLFVCV
5. LGIPKLLCFVCT

[0.526, 0.628, 0.691, 0.548, 0.465]

Quick batch: protein stability index for everything below.
1. NAAVQSGGRVAG
2. YVLWFVCGVGFV
3. GMLIYVIGGLSH
4. GVSFLFVGVSLV

[0.733, 0.477, 0.667, 0.55]

Quick batch: protein stability index for everything below.
1. VYIVLLLLFLRP
2. CRLLYYIPCGLF
3. GGYVTVTSVTVV
4. SLSCYSFFVLAL
5. FALFLFFGPLIV
6. EWVGIFRGVSVF
7. CPPPCPLYMLLC
8. VFILGFLCLLFF

[0.407, 0.701, 0.605, 0.534, 0.523, 0.416, 0.612, 0.497]
